These entries and their values trace back to patent US20210246115A1.

MIC for assorted molecules
# Test system: Staphylococcus aureus (ATCC25923)
# METHOD: MIC, broth microdilution (CLSI), Staphylococcus aureus ATCC25923
# EXPERIMENTAL_SETUP: Staphylococcus aureus, ATCC25923, read-out: S. aureus ATCC 25923 MIC
Structures can show the parent of a compound that is named as a salt.
MEASURED_ATTRIBUTE: MIC (µg/mL)

Cc1cccc(C(CC(=O)NC2CCC(N)CC2)c2cn(CC34CC5CC(CC(C5)C3)C4)c3ccccc23)c1.Cl (stereo not shown) [Compound 223] :: 2
Cc1cccc(C(CC(=O)NC2CCC(N)CC2)c2cn(CC3CCCCCC3)c3ccccc23)c1.Cl (stereo not shown) [Compound 238] :: 4
NC1CCC(NCCC(c2cccc(C(F)(F)F)c2)c2cn(CC3CCCCC3)c3ccccc23)CC1 (stereo not shown) [Compound 168, hydrochloride salt] :: 2
